Each item that follows carries a reported GI50.
tested on: M19-MEL; assay: NCI tumour cell line growth inhibition, 48 h
Calls of active or inactive are those of the source. No stated cut-off is given here; in the data, active = GI50 up to about 1.1 µM and inactive = higher.
Measured Property: GI50

CCC/C=C/C=C\C(=O)O[C@@H]1[C@@H](C)[C@]2(O)[C@@H]3C=C(C)C(=O)[C@H]3CC(COC(C)=O)=C[C@H]2[C@@H]2C(C)(C)[C@]12OC(C)=O	32.2 µM (inactive)
C=C(NC(=O)C(=C)NC(=O)c1csc(C2=NC3c4csc(n4)C4NC(=O)c5csc(n5)C(C(C)(O)C(C)O)NC(=O)C5CSC(=N5)/C(=C/C)NC(=O)C(C(C)O)NC(=O)c5csc(n5)C3(CC2)NC(=O)C(C)NC(=O)C(=C)NC(=O)C(C)NC(=O)C(C(C)CC)NC2C=Cc3c(C(C)O)cc(nc3C2O)C(=O)OC4C)n1)C(N)=O (stereo unspecified)	1.37 µM (inactive)
CC1(C)CC2(S(=O)(=O)c3ccccc3)ON1CC2S(=O)(=O)c1ccccc1 (stereo unspecified)	> 100 µM (inactive)
O/N=C1/C(=C/c2ccc3c(c2)OCO3)CCCC1C(NO)c1ccc2c(c1)OCO2 (stereo unspecified)	24.8 µM (inactive)
CC1=CCC(O)C=CC(C)C(O)C(C)C=C(C)C(=O)c2c(O)c(C)cc3c2C(=O)C(N)=C(NC(=O)/C=C\C=C/C=CC(C)C(O)CC1=O)C3=O (stereo unspecified)	> 100 µM (inactive)
N#C/C(=C\c1ccc2ccccc2c1)C(=O)c1ccccc1	> 87.9 µM (inactive)
